tested on: SK-BR-3; assay: Antiproliferative activity against human SK-BR-3 cells assessed as reduction in cell viability measured after 72 hrs by MTT assay; format: functional, cell-based; settings: SK-BR-3, 72 h
metric_name: pIC50
Please keep in mind that pIC50 is minus log10 of the molar concentration; only the number is needed.

{"molecule": "C=C1COC(c2ccc3c(c2OC)C(=O)OCc2cc(C)cc(O)c2O3)C1O (racemic)", "metric_name": "pIC50", "result_number": 4.54}
{"molecule": "C=C(C)[C@H](C)[C@H](O)c1ccc2c(c1OC)C(=O)OCc1cc(C)cc(O)c1O2", "metric_name": "pIC50", "result_number": 4.36}
{"molecule": "COc1c([C@@H]2OC[C@@](C)(O)[C@H]2O)ccc2c1C(=O)OCc1cc(C)cc(O)c1O2", "metric_name": "pIC50", "result_number": 4.05}

Continue with the next molecule.
In: Which pIC50 is reported with SK-BR-3 for this entry: C=C1CO[C@H](c2ccc3c(c2OC)C(=O)OCc2cc(C)cc(O)c2O3)[C@H]1O ?
Out: 4.06

----------
The entries below come with measured pIC50 values attached.
system: SK-BR-3; test: Antiproliferative activity against human SK-BR-3 cells assessed as reduction in cell viability measured after 72 hrs by MTT assay; type: functional, cell-based; conditions: SK-BR-3, 72 h
pIC50: −log10 of the molar value.

{"mol_smiles": "C=C1CO[C@@H](c2ccc3c(c2OC)C(=O)OCc2cc(C)cc(O)c2O3)[C@@H]1O", "target_or_test_system": "SK-BR-3", "result": "< 4.00"}

In: Value lookup for pIC50; key = COc1c([C@H]2OC[C@@](C)(O)[C@H]2O)ccc2c1C(=O)OCc1cc(C)cc(O)c1O2
Out: < 4.00

In: What measured pIC50 goes with COc1c(/C=C/[C@@](C)(O)CO)ccc2c1C(=O)OCc1cc(C)cc(O)c1O2 ?
Out: < 4.00
